These measurements were taken from paper PMC7616177.

# measurement-target: human M1 receptor (Homo sapiens, UniProt P11229)
# Construct: expressed in transfected cells
# Sequence (P11229 whole entry): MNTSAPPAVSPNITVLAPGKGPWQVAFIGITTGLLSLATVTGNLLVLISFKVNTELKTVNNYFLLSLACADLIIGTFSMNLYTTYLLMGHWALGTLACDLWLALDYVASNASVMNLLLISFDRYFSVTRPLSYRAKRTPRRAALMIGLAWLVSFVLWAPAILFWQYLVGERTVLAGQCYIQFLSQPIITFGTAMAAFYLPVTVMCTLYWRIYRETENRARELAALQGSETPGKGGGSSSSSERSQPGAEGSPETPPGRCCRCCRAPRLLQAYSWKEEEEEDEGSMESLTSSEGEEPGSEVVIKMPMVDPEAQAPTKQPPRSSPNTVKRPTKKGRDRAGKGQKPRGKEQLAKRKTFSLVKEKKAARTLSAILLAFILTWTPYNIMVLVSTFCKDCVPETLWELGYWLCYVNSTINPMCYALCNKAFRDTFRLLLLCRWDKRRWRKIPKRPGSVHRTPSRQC
# measurement-notes: M1-receptor functional agonist assays (pERK1/2 and calcium mobilisation) for hits and SAR
# Format: cell-based
# condition-description: calcium assays; read-out: Potency at the M1-receptor in calcium assays EC50
quantity-measured: pEC50
Numbers only, as −log10 of the molar value.

Q: Name the recorded pEC50 for CCOC(=O)N1CCCC(N2CCC(C(=O)NCC(C)C)CC2)CC1 (stereo not shown) [Compound 6] .
Ans: 7.10

====

# measurement-target: human M1 receptor (Homo sapiens, UniProt P11229)
# Construct: expressed in transfected cells
# measurement-notes: Inositol phosphate (IP1) accumulation in CHO Flp-In cells
# Format: cell-based
quantity-measured: pEC50
One number for each entry, as −log10 of the molar value.

Q: Provide the documented pEC50 with human M1 receptor (Homo sapiens, UniProt P11229) as the system for CCOC(=O)N1CCC[C@H](N2CCC(C(=O)NC3(C)CCC3)CC2)CC1 [HTL9936]
Ans: 6.20

====

# measurement-notes: 4-day repeat dose tolerability assessment in dogs
# condition-description: beagle, dog, plasma (unbound)
quantity-measured: concentration at 4 day

Q: # query: concentration at 4 day of entry `CCOC(=O)N1CCC[C@H](N2CCC(C(=O)NC3(C)CCC3)CC2)CC1`
Ans: 60 µM

====

Could you please report measured pEC50 for the items listed next?
# measurement-target: M4-receptor (Homo sapiens, UniProt P08173)
# Sequence (P08173 whole entry): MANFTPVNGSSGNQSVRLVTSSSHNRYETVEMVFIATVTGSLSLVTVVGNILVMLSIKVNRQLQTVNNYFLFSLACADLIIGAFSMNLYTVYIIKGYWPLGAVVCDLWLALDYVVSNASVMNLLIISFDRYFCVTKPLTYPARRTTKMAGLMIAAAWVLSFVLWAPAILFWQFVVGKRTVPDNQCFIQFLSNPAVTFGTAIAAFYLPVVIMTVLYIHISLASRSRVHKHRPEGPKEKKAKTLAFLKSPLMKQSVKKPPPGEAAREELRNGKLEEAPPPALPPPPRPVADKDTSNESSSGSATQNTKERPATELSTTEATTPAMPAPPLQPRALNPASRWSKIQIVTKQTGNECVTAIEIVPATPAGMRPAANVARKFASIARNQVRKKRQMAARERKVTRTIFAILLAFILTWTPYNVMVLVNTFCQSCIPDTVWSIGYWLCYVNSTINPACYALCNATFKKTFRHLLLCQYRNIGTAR
# measurement-notes: M4-receptor functional agonist assay
# Assay type: cell-based
# Set-up: expressed in transfected cells
# condition-description: read-out: M4-receptor EC50
Give bare numbers, as −log10 of the molar value.

>  <molecule>
CCOC(=O)N1CCCC(N2CCC(C(=O)NCC(C)C)CC2)CC1 (centres unmarked)

>  <measurement-target>
M4-receptor (Homo sapiens, UniProt P08173)

>  <recorded-measurement>
6.10

$$$$

Q: What measured pEC50 goes with CCOC(=O)N1CCC[C@@H](N2CCC(C(=O)NC3(C)CCC3)CC2)CC1 [(R)-Compound 7] ?
Ans: 5.60

====

# measurement-target: M3-receptor (Homo sapiens, UniProt P20309)
# Construct: expressed in transfected cells
# Sequence (P20309 whole entry): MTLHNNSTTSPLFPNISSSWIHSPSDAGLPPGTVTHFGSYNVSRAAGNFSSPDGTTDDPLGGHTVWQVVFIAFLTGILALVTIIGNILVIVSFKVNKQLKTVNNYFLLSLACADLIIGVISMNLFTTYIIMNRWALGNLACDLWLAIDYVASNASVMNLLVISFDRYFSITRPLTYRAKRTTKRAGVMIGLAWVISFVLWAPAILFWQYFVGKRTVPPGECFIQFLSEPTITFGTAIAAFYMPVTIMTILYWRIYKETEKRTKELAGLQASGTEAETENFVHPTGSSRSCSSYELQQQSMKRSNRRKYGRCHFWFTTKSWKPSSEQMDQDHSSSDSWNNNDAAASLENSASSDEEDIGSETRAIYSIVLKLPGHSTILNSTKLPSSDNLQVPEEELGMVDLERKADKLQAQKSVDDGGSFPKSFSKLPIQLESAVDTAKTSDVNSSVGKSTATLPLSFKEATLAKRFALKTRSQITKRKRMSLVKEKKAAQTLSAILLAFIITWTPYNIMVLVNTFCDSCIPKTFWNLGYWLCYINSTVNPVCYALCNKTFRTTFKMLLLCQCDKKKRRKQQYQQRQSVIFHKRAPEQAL
# measurement-notes: M3-receptor functional agonist assay
# Assay type: cell-based
pEC50: −log10 of the molar value.
quantity-measured: pEC50

Q: Given CCOC(=O)N1CCC[C@H](N2CCC(C(=O)NC3(C)CCC3)CC2)CC1 [HTL9936] , state its recorded pEC50.
Ans: < 4.70

====

# measurement-target: M2-receptor (Homo sapiens)
# Sequence (P08172 1-466): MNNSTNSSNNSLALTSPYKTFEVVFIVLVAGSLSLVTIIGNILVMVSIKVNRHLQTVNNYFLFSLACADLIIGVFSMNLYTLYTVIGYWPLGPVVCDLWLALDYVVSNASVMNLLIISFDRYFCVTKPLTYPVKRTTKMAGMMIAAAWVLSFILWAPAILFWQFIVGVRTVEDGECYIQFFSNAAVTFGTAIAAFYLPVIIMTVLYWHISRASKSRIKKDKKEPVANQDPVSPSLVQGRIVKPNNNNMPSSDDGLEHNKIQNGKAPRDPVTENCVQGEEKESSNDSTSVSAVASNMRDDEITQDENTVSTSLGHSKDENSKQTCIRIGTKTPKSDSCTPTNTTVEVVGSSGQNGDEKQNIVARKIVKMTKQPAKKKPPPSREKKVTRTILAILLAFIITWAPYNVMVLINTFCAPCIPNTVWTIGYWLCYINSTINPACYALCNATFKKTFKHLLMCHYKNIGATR
# measurement-notes: M2-receptor functional agonist assay
# Type: cell-based
# Parameters: expressed in transfected cells

>  <smiles-record>
CCOC(=O)N1CCC(N2CCC(C(=O)NCC(C)C)CC2)CC1

>  <M2-receptor agonist activity>
weak

$$$$
